Biological target: SMO (Mus musculus, UniProt P56726)
Construct: endogenous in cells; host or cells: C3H10T1/2 (ATCC #CCL-226)
Sequence (P56726 33-793): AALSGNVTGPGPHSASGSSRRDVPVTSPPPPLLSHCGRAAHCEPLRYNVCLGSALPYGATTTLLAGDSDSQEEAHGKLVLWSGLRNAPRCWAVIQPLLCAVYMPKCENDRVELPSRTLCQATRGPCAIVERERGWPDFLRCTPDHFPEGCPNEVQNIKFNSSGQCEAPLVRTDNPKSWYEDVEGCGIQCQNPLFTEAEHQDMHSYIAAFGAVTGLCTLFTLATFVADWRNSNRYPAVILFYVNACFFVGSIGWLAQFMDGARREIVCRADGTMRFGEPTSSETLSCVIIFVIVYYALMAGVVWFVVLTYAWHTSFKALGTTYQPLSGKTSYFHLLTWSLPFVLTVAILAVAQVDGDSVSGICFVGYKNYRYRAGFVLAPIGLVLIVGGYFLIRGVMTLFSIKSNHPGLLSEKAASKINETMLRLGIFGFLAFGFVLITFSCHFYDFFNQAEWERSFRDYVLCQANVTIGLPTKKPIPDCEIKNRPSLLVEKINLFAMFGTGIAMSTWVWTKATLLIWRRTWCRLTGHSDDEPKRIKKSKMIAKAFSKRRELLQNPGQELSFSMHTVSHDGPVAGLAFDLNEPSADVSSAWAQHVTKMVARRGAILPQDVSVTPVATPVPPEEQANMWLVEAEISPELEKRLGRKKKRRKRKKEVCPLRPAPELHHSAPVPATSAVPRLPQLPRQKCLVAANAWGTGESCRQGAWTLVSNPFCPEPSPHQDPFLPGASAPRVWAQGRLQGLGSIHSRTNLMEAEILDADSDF
Test: Smoothened (SMO)/Sonic Hedgehog (SHh) Transient Transcriptional Activation Assay (Gli-luciferase reporter in C3H10T1/2 cells)
Type: cell-based, murine
Settings: 2 μM test compound, SHh 250 ng/ml, 20 hrs
MEASUREMENT_TYPE: SMO CELL % INHIBITION @ 2 μM (%)
Supply the numeric figure in %, leaving out any unit text.

INSERT INTO measurements (molecule, measurement_type, result_units, reported_result) VALUES
  ('Cl.O=C(N[C@H]1CCC[C@H](c2nc3ccccc3[nH]2)C1)c1ccc2c(c1)CN(CC1CC1)CC2 [Example 291]', 'SMO CELL % INHIBITION @ 2 μM', '%', 85.2),
  ('O=C(NC1CCCC(c2nc3ccccc3[nH]2)C1)c1ccc2cc[nH]c2c1 (stereo not shown) [Example 141]', 'SMO CELL % INHIBITION @ 2 μM', '%', 110),
  ('O=C(Cn1ccc2sccc2c1=O)NC1CCCC(c2nc3ccccc3[nH]2)C1 (stereo not shown) [Example 128]', 'SMO CELL % INHIBITION @ 2 μM', '%', 100);

# next molecule below
Lookup: Hello, please tell me recorded SMO CELL % INHIBITION @ 2 μM for this one: Cl.O=C(NC12CCCC(c3nc4cc(C(F)(F)F)ccc4[nH]3)(C1)C2)c1ccc2c(c1)OCCO2 [Example 258]
Found: 99.22
